Data provenance: the RNAGym collection of RNA variant scans (doi:10.7554/elife.90254)

Provide the reported self-cleavage of each item.
B1: LINE1-full (parent)
chain: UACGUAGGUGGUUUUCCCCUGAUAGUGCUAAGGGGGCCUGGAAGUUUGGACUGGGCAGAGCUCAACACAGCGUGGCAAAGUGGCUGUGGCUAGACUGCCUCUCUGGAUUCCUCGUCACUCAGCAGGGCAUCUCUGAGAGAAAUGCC

Variants of: B1
assay details: self-cleavage, relative activity (ratio to wild type); higher = more cleavage; in vitro, sequencing; the parent is a self-cleaving ribozyme
Respond using a number only.

I am curious: what self-cleavage value has been reported for U81A U85C ?
0.16

Now try U13C U104A .
1.18

Now try C19U A124U .
0.76

Now try U39C G75A .
0.83

Now try U62G U87G .
0

Now try U47C A77C .
0.34

Now try A121U G125U .
1.4

Now try A30U U45A .
1.14

Now try G34U A43U .
0.97

Now try U91C U109C .
0.61

Now try U45A G89C .
0.31
